Source listed as patent US20190248902A1.

List of % Change Compared to pH 7.4 + Calcium values.
Molecular target: T1, recombinant, soluble human ASGR-1 (human, UniProt P07306 62-291)
T1 construct: biotinylated in the binning assay; also called soluble huASGR-1; Soluble ASGR-1 (Amgen)
T1 sequence: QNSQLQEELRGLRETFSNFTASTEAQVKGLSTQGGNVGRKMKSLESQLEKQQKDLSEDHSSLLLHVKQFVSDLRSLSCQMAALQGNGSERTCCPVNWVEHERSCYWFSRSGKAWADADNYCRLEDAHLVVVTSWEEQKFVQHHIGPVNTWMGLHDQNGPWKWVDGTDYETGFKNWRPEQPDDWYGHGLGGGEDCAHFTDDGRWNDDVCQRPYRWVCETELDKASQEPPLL
Assay: Octet BLI dissociation, pH 7.4 minus calcium
Note: state the figure and append the unit.

52G11 (antibody, V domains shown, hybridoma mAb) VH: QVQLVQSGAEVKKPGASVKVSCKASGYTFTGYYLHWVRQAPGQGLEWMGWINPNRNGTNYAQKFQGRVTMTRDTSISTAFMELSRLRSDDTAVYYCARDGTSSFDYWGQGTLVTVSS VL: DIQMTQSPSSVSASVGDRVTITCRASQGISKWLAWYQQKPGKAPKLLLYAASSLQSGVPSRFSASGSGTDFTLTISSLQPEDFATYYCQQANSFPFTFGPGTKVDVK has a reported % Change Compared to pH 7.4 + Calcium of 15%

Record 63G7 (antibody, V domains shown, hybridoma mAb) VH: EVQLVESGGGLVQPGGSLRLSCAASGFTFSSYSMNWVRQAPGKGLEWVSYISSSTSTIYYAASVKGRFTISRDNAKNSLYLQMNSLRDEDTAVYYCARDHRYYDSSGYYSDAFDIWGQGTMVTVSS VL: NFMLTQPHSVSESPGKTVTISCTRSNGSIVSNYVQWYQQRPGSSPTTMIYEDSRRPSGVPDRFSGSIDSSSNSASLTISGLKTEDEADYSCQSYDGINVVFGGGTKLTVL . Reported % Change Compared to pH 7.4 + Calcium: 20%
